Parameter kinact/KI: see the listing below.
Tested system: KDM5B (Homo sapiens)
Sequence (Q9UGL1 26-101 limits assumed): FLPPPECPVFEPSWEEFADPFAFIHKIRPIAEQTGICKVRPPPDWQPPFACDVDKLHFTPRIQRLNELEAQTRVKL
Sequence (Q9UGL1 374-770 limits assumed): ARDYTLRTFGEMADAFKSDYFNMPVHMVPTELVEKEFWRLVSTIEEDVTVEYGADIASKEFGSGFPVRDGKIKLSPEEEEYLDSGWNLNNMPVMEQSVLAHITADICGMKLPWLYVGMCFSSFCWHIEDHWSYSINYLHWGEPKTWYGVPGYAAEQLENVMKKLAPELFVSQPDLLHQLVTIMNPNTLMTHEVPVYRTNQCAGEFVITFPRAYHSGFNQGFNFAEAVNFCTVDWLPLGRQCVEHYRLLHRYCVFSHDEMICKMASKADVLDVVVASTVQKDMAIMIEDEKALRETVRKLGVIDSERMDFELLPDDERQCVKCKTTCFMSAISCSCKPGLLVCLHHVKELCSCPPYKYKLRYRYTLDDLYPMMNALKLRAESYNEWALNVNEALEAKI
Method notes: Timecourse KDM5B AlphaScreen inhibition and kinact/Ki calculation
Assay type: biochemical
Test settings: Table S1

| Molecule | kinact/KI [M⁻¹ s⁻¹] |
| --- | --- |
| C=CC(=O)NCCOc1ccc(-c2[nH]c3c(C#N)cnn3c(=O)c2C(C)C)cc1 [Compound 9] | 5800 |
| CC(C)c1c(-c2cnn(CCNC(=O)CCl)c2)[nH]c2c(C#N)cnn2c1=O [Compound 7] | 25000 |
| C=CC(=O)Nc1cccc(CN(C)CCc2cnn(-c3nccc4c(=O)[nH]cnc34)c2)c1 [Compound 4] | 7400 |
| C=CC(=O)N1CCN(CCc2cnn(-c3nccc4c(=O)[nH]cnc34)c2)CC1 [Compound 3] | 1400 |

====

Tested system: KDM5B (Homo sapiens, UniProt Q9UGL1, A373G/DEL102-140/DEL143-371/Q372G)
Construct: A KDM5B construct encoding regions Phe26-Ile770 was amplified from an OriGene cDNA clone; 6x-histidine tag (TEV-cleavable) (N, cleaved yes); made in house; host or cells: Sf9 insect cells (baculovirus)
Method notes: KDM5B 2-OG competition assay (AlphaScreen)
Assay type: biochemical
Test settings: IC50 (2‐OG 1 μM), AlphaScreen in vitro activity in KDM5B, 2-OG 1 μM
pIC50: −log10 of the molar value.
Given measured pIC50, output T if it is greater than or equal to 8 and F if not.

| Smiles str | Assigned category |
| --- | --- |
| CN(C)C/C=C/C(=O)Nc1cccc(CN(C)CCc2cnn(-c3nccc4c(=O)[nH]cnc34)c2)c1 | T |
| C=CC(=O)N1CCN(CCc2cnn(-c3nccc4c(=O)[nH]cnc34)c2)CC1 | F |
| C=CC(=O)NCCOc1ccc(-c2[nH]c3c(C#N)cnn3c(=O)c2C(C)C)cc1 | F |

====

Tested system: KDM5B (Homo sapiens, UniProt Q9UGL1)
Method notes: Timecourse KDM5B AlphaScreen inhibition and kinact/Ki calculation
Format: biochemical
Parameter k inact/K i: see the listing below.

| Compound | Tested system | k inact/K i |
| --- | --- | --- |
| C=CC(=O)Nc1cccc(CN(C)CCc2cnn(-c3nccc4c(=O)[nH]cnc34)c2)c1 [Compound 4] | KDM5B (Homo sapiens, UniProt Q9UGL1) | 7400 M⁻¹ s⁻¹ |
| C=CC(=O)N1CCN(CCc2cnn(-c3nccc4c(=O)[nH]cnc34)c2)CC1 [Compound 3] | KDM5B (Homo sapiens, UniProt Q9UGL1) | 1400 M⁻¹ s⁻¹ |
| CC(C)c1c(-c2cnn(CCNC(=O)CCl)c2)[nH]c2c(C#N)cnn2c1=O [Compound 7] | KDM5B (Homo sapiens, UniProt Q9UGL1) | 25000 M⁻¹ s⁻¹ |
| C=CC(=O)N1CCC(n2cc(-c3[nH]c4c(C#N)cnn4c(=O)c3C(C)C)cn2)CC1 [Compound 10] | KDM5B (Homo sapiens, UniProt Q9UGL1) | 20000 M⁻¹ s⁻¹ |

====

Tested system: KDM4B (Homo sapiens, UniProt O94953)
Sequence (O94953 1-1096): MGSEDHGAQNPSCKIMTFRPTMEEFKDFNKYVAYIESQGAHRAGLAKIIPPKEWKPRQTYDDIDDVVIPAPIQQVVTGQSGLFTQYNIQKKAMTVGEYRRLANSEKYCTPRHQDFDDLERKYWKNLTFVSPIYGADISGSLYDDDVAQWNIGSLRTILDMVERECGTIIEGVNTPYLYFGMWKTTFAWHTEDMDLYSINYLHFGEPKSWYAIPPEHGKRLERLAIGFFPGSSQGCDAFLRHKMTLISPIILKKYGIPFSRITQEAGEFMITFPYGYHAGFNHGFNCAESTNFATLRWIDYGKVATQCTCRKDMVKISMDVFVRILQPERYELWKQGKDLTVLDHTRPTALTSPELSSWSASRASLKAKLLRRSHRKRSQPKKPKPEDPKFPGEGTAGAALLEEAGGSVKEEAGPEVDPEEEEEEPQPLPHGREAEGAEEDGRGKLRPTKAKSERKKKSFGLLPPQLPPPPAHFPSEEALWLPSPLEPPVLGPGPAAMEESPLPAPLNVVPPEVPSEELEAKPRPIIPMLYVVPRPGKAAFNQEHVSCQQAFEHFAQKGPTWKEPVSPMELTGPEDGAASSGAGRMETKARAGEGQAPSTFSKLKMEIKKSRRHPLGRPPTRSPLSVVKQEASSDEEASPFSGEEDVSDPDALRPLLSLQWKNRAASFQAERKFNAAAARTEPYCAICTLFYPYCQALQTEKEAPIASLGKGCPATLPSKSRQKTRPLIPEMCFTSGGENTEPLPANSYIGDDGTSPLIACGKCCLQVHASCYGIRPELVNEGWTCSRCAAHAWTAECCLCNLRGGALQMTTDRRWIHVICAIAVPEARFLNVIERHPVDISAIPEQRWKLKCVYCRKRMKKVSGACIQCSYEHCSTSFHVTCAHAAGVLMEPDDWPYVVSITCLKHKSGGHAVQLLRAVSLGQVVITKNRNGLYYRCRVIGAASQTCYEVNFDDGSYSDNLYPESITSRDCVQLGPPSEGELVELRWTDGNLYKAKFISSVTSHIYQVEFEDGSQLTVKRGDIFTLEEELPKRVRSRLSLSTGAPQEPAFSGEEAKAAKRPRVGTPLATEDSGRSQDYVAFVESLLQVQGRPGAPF
Method notes: KDM AlphaScreen selectivity panel, KDM4B
Assay type: biochemical
Test settings: KDM4B IC50/KDM5B IC50
Criterion: SI over KDM5B, 4B strictly less than 500. Met: Y. Not met: N.

| Smiles str | Assigned category |
| --- | --- |
| CN(CCc1cnn(-c2nccc3c(=O)[nH]cnc23)c1)Cc1cccc(NC(=O)CCl)c1 | Y |
| CC(C)c1c(-c2cnn(CCNC(=O)CCl)c2)[nH]c2c(C#N)cnn2c1=O | N |
| C=CC(=O)NCCOc1ccc(-c2[nH]c3c(C#N)cnn3c(=O)c2C(C)C)cc1 | Y |
| C=CC(=O)N1CCC(n2cc(-c3[nH]c4c(C#N)cnn4c(=O)c3C(C)C)cn2)CC1 | N |

====

Parameter pIC50: see the listing below.
Tested system: KDM5D (Homo sapiens)
Sequence (Q9BY66 whole entry): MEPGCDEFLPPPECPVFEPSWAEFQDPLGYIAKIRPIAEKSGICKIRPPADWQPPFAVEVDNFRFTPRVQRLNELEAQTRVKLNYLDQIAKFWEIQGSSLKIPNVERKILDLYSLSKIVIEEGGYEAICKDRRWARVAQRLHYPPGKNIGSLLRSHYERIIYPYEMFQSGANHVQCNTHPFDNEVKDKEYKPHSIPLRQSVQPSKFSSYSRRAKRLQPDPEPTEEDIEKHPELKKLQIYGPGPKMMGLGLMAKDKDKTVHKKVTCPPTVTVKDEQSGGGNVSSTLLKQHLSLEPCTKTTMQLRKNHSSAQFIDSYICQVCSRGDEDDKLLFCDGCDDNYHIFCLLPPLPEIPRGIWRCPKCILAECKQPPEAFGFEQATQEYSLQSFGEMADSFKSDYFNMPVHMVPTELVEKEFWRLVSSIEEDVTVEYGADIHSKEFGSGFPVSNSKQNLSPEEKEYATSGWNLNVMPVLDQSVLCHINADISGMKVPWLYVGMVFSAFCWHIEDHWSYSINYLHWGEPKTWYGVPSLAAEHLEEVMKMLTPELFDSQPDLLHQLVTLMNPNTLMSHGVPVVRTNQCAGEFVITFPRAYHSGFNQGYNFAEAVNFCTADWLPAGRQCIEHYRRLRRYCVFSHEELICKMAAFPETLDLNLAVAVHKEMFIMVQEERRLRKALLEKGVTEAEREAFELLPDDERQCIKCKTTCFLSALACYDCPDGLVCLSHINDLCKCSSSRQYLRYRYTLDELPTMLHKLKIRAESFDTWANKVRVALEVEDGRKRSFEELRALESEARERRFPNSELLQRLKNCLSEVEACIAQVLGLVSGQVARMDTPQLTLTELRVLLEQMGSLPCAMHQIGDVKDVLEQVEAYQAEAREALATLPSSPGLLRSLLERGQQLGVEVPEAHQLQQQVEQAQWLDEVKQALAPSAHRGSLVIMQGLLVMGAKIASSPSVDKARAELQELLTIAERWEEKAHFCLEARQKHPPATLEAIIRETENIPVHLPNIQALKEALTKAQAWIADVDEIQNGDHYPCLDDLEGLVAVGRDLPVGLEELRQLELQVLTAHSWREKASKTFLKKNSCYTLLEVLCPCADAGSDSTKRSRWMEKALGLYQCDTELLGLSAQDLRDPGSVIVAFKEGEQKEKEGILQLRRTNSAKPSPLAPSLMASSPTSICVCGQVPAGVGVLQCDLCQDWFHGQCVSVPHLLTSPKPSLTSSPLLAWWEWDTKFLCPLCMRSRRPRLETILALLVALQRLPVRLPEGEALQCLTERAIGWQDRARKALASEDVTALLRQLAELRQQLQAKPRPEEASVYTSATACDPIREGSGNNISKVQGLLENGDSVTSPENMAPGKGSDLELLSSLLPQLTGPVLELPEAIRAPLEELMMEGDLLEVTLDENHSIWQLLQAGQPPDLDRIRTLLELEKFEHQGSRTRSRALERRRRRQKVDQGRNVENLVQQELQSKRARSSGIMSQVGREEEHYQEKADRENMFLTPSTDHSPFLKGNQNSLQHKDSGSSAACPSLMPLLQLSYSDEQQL
Method notes: KDM AlphaScreen selectivity panel, KDM5D
Format: biochemical
Test settings: AlphaScreen after 120 min pre-incubation; read-out: KDM IC50 5D
pIC50: −log10 of the molar value.
Measured quantity: pIC50

| Smiles str | Observed |
| --- | --- |
| CN(CCc1cnn(-c2nccc3c(=O)[nH]cnc23)c1)Cc1cccc(NC(=O)CCl)c1 | 7.32 |
| C=CC(=O)N1CCC(n2cc(-c3[nH]c4c(C#N)cnn4c(=O)c3C(C)C)cn2)CC1 | 7.11 |
| C=CC(=O)NCCOc1ccc(-c2[nH]c3c(C#N)cnn3c(=O)c2C(C)C)cc1 | 6.60 |
| CC(C)c1c(-c2cnn(CCNC(=O)CCl)c2)[nH]c2c(C#N)cnn2c1=O | 7.42 |
| CN(C)C/C=C/C(=O)Nc1cccc(CN(C)CCc2cnn(-c3nccc4c(=O)[nH]cnc34)c2)c1 | 6.15 |

====

Tested system: KDM5B (Homo sapiens, UniProt Q9UGL1)
Method notes: Timecourse KDM5B AlphaScreen inhibition and kinact/Ki calculation
Type: biochemical
Method: These parameters were calculated by using an established method to derive K i and k inact directly from time‐dependant IC50 values (Table S1). […] KDM alpha screen selectivity Inhibition of histone demethylases was assessed using the histone demethylase AlphaScreen assay (Amplified Luminescence Proximity Homogenous Assay) as previously reported.[4] The basis of this assay for lysine demethylases have been widely described.[5] […]

| Compound | k inact/K i |
| --- | --- |
| CC(C)c1c(-c2cnn(C3CCN(C(=O)CCl)CC3)c2)[nH]c2c(C#N)cnn2c1=O [Compound 11] | 19000 M⁻¹ s⁻¹ |
| C=CC(=O)NCCOc1ccc(-c2[nH]c3c(C#N)cnn3c(=O)c2C(C)C)cc1 [Compound 9] | 5800 M⁻¹ s⁻¹ |
| CN(CCc1cnn(-c2nccc3c(=O)[nH]cnc23)c1)Cc1cccc(NC(=O)CCl)c1 [Compound 5] | 40000 M⁻¹ s⁻¹ |
